species: Rattus norvegicus; experiment: DrugMatrix - Regimen: Daily Repeat; assay type: toxicity, organism-based, Sprague-Dawley; set-up: regimen Daily Repeat, gender Male, age 6-8 weeks; details: in vivo, po, 0 mg/kg, 120 h, tissue Blood, route oral GAVAGE, dose level Control, time 5 day, vehicle 100 % WATER
Threshold check on ABSOLUTE MONOCYTE: strictly below 100 CELLS/uL is True; on or above 100 CELLS/uL is False.

CC(C)C[C@H](NC(=O)[C@@H](O)[C@H](N)Cc1ccccc1)C(=O)O = False
Cc1ncc([N+](=O)[O-])n1CCO = False
ClC(Cl)Cl [CHLOROFORM] = False
C[C@@H]1C[C@@H]([C@H](O)CC2CC(=O)NC(=O)C2)C(=O)[C@@H](C)C1 [CYCLOHEXIMIDE] = False
CC(C)(C)c1ccc(C(=O)CCCN2CCC(OC(c3ccccc3)c3ccccc3)CC2)cc1 = False

Given C[N+](C)(C)CCO.[Cl-] [CHOLINE CHLORIDE] , is recorded ABSOLUTE MONOCYTE strictly lower than 100 CELLS/uL? False

Regarding CC(C)NCC(O)COc1cccc2ccccc12 (centres undefined) , kindly confirm whether its ABSOLUTE MONOCYTE is beneath 100 CELLS/uL. False

Please let me know if Nc1ccn([C@@H]2CS[C@H](CO)O2)c(=O)n1 shows ABSOLUTE MONOCYTE below 100 CELLS/uL. True

Find out if reported ABSOLUTE MONOCYTE for COC(=O)C1=C(C)NC(C)=C(C(=O)OCC(C)C)C1c1ccccc1[N+](=O)[O-] (centres undefined) is less than 100 CELLS/uL True

----------
organism: Rattus norvegicus; experiment: DrugMatrix - Regimen: Daily Repeat; type: toxicity, organism-based, Sprague-Dawley; design: regimen Daily Repeat, gender Male, age 6-8 weeks; details: in vivo, po, 0 mg/kg, 72 h, tissue Plasma, route oral GAVAGE, dose level Control, time 3 day, vehicle 100 % WATER
Assign Satisfied to entries whose TOTAL BILIRUBIN meets or exceeds 0.2 mg/dL; assign Not satisfied to the rest.

Known results for molecules:
COc1cc2ncnc(Nc3ccc(F)c(Cl)c3)c2cc1OCCCN1CCOCC1 [GEFITINIB] = Satisfied
CC(C)C[C@H](NC(=O)[C@@H](O)[C@H](N)Cc1ccccc1)C(=O)O [UBENIMEX] = Satisfied
C[C@@H]1C[C@@H]([C@H](O)CC2CC(=O)NC(=O)C2)C(=O)[C@@H](C)C1 [CYCLOHEXIMIDE] = Not satisfied

Alright, here's another molecule for you.
Hello, I need to know if ClC(Cl)Cl [CHLOROFORM] has measured TOTAL BILIRUBIN not below 0.2 mg/dL. Thanks! Not satisfied

----------
I'd appreciate it if you could supply ABSOLUTE EOSINOPHIL values for the items below.
species on record: Rattus norvegicus; assay: DrugMatrix - Regimen: Daily Repeat; assay type: toxicity, organism-based, Sprague-Dawley; set-up: regimen Daily Repeat, gender Male, age 6-8 weeks; conditions: in vivo, po, 0 mg/kg, 72 h, tissue Blood, route oral GAVAGE, dose level Control, time 3 day, vehicle 100 % WATER
Numbers only, in CELLS/uL.

As a guide, the following entries are already answered.
CC(C)C[C@H](NC(=O)[C@@H](O)[C@H](N)Cc1ccccc1)C(=O)O [UBENIMEX] = 168.33
CC(C)NCC(O)COc1cccc2ccccc12 (centres undefined) [PROPRANOLOL] = 46
COC(=O)C1=C(C)NC(C)=C(C(=O)OCC(C)C)C1c1ccccc1[N+](=O)[O-] (centres undefined) [NISOLDIPINE] = 0

Could I get ABSOLUTE EOSINOPHIL for every one of these entries?
1. Nc1ccn([C@@H]2CS[C@H](CO)O2)c(=O)n1 [LAMIVUDINE]
2. ClC(Cl)Cl [CHLOROFORM]
3. CC(C)(C)c1ccc(C(=O)CCCN2CCC(OC(c3ccccc3)c3ccccc3)CC2)cc1 [EBASTINE]
4. C[C@@H]1C[C@@H]([C@H](O)CC2CC(=O)NC(=O)C2)C(=O)[C@@H](C)C1 [CYCLOHEXIMIDE]

1: 0; 2: 86.33; 3: 123.17; 4: 25

Dear colleague, could you please provide ABSOLUTE EOSINOPHIL for the compounds listed below?
1. C[N+](C)(C)CCO.[Cl-] [CHOLINE CHLORIDE]
2. Cc1ncc([N+](=O)[O-])n1CCO [METRONIDAZOLE]

[0, 86.33]

From: ChEMBL document CHEMBL3885881
